Test system: LXRb homodimer (NR concentration 270 nM)
protocol: PBM binding z-score (relative to random genomic background probes); higher = stronger binding; sequences stand for … in GC…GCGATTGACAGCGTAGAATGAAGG
Below, each entry is listed alongside its reported PBM binding z-score.
readout.kind: PBM binding z-score

seq=ATCTCTAGGTAAAGATAGTTCAGGGAATGCAAAT target_or_test_system="LXRb homodimer (NR concentration 270 nM)" endpoint_value=0.535
seq=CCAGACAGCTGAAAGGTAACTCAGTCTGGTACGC target_or_test_system="LXRb homodimer (NR concentration 270 nM)" endpoint_value=-0.748
seq=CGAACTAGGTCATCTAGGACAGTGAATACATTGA target_or_test_system="LXRb homodimer (NR concentration 270 nM)" endpoint_value=-0.144
seq=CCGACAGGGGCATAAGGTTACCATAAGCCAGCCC target_or_test_system="LXRb homodimer (NR concentration 270 nM)" endpoint_value=-1.11

* * *

Tested on: RARa:RXR (NR concentration 270 nM, RXRa partner concentration 90 nM)
protocol: PBM binding z-score (relative to random genomic background probes); higher = stronger binding; sequences stand for … in GC…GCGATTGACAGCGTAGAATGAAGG
Below, each entry is listed alongside its reported PBM binding z-score.
readout.kind: PBM binding z-score

seq=GTACCAAGGTGAATAGGGCGTTGATGAGTAGGCG endpoint_value=0.434
seq=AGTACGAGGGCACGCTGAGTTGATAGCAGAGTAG endpoint_value=0.957
seq=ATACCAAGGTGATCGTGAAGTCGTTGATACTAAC endpoint_value=0.548
seq=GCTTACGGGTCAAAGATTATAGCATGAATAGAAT endpoint_value=4.47
seq=ACTAGCAGGCCAGGTTTGGGTCACTCAAACAAAG endpoint_value=1.17
seq=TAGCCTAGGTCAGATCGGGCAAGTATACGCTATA endpoint_value=1.06
seq=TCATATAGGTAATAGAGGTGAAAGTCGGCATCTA endpoint_value=1.92
seq=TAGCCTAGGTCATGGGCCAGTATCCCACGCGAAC endpoint_value=2.55
seq=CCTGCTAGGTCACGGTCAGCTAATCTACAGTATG endpoint_value=3.24
seq=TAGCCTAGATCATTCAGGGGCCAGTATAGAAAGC endpoint_value=0.0251
seq=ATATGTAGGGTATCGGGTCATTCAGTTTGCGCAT endpoint_value=2.95
seq=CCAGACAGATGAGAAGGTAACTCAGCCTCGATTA endpoint_value=-0.00624
seq=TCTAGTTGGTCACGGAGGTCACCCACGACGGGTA endpoint_value=4.66
seq=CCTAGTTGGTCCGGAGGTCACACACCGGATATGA endpoint_value=4.43
seq=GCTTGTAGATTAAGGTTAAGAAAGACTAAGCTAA endpoint_value=1.01
seq=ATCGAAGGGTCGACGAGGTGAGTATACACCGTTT endpoint_value=2.02
seq=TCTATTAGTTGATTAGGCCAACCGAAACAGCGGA endpoint_value=0.834
seq=GCTAGTTGGTCAGTAAAAGGTCACATACCGGTCG endpoint_value=5.66
seq=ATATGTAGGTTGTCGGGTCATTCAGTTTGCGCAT endpoint_value=3.15

* * *

Test system: VDR:RXRa (NR concentration 270 nM, RXRa partner concentration 90 nM)
protocol: PBM binding z-score (relative to random genomic background probes); higher = stronger binding; sequences stand for … in GC…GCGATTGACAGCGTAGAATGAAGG
readout.kind: PBM binding z-score

seq=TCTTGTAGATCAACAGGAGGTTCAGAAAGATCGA endpoint_value=0.595
seq=AGTCAAGGTTCATCTAGGTAACGTAAGATATGCT endpoint_value=4.56
seq=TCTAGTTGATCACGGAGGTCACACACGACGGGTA endpoint_value=3.99
seq=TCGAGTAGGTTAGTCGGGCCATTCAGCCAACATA endpoint_value=0.761
seq=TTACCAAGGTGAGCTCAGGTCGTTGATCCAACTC endpoint_value=1.81
seq=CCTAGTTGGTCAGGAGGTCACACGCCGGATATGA endpoint_value=3.93
seq=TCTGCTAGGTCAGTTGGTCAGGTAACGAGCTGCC endpoint_value=-0.0561
seq=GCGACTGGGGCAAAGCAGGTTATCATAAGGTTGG endpoint_value=0.334
seq=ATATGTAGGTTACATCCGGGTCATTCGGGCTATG endpoint_value=3.9
seq=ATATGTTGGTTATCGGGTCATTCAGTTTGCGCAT endpoint_value=4.86
seq=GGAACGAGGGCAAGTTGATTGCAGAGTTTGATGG endpoint_value=0.675
seq=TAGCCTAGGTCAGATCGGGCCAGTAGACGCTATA endpoint_value=0.169
seq=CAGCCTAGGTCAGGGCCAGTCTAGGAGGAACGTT endpoint_value=0.0507
seq=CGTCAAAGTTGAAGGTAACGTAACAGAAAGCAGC endpoint_value=-0.0741
seq=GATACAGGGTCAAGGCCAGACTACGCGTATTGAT endpoint_value=4.28
seq=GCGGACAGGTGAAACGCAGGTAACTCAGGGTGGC endpoint_value=-0.55
seq=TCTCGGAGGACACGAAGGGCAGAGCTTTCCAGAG endpoint_value=0.0136
seq=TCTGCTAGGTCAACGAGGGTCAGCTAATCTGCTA endpoint_value=5.1
seq=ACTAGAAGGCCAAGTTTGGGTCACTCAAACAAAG endpoint_value=1.28
seq=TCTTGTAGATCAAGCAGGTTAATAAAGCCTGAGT endpoint_value=0.675
seq=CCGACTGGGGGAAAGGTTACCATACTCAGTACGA endpoint_value=1.79
